systemName: T1, orthogonal hCD122 receptor (hoRb), hCD122 with H133D and Y134F (human, UniProt P14784 27-550); further: reference of the scale not given here
T1 sequence: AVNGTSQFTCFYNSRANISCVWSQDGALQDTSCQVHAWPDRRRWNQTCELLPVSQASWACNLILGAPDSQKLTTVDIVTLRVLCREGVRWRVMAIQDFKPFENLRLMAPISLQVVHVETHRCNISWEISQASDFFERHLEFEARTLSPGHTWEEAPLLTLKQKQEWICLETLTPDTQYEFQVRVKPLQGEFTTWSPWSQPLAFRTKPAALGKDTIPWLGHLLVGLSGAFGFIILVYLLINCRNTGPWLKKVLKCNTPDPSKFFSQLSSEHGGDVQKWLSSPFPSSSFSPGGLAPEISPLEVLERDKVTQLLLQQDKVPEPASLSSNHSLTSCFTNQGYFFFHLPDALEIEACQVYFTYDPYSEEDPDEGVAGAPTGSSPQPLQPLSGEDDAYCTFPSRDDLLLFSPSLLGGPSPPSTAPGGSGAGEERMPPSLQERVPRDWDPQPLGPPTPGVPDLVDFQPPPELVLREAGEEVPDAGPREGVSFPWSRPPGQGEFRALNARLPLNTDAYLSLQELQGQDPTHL
testDescription: cell-based or functional assay
Recorded measurements of Relative Proliferation Fold Change 3F8 1:10, one per entry
reportedEndpoint: Relative Proliferation Fold Change 3F8 1:10

>  <binder>
Q126E, SQVLKA (ligand) APTSSSTKKTQLQLSQLLVLLKAILNGINNYKNPKLTRMLTFKFYMPKKATELKHLQCLEEELKPLEEVLNLAQSKNFHLRPRDLISNINVIVLELKGSETTFMCEYADETATIVEFLNRWITFCESIISTLT

>  <obsValue>
33.6 fold

$$$$
>  <binder>
ΔR81, SQVLKA (ligand) APTSSSTKKTQLQLSQLLVLLKAILNGINNYKNPKLTRMLTFKFYMPKKATELKHLQCLEEELKPLEEVLNLAQSKNFHLPRDLISNINVIVLELKGSETTFMCEYADETATIVEFLNRWITFCQSIISTLT

>  <obsValue>
39 fold

$$$$
>  <binder>
T3E, SQVLKA (ligand) APESSSTKKTQLQLSQLLVLLKAILNGINNYKNPKLTRMLTFKFYMPKKATELKHLQCLEEELKPLEEVLNLAQSKNFHLRPRDLISNINVIVLELKGSETTFMCEYADETATIVEFLNRWITFCQSIISTLT

>  <obsValue>
45.5 fold

$$$$
>  <binder>
L18Y, SQVLKA (ligand) APTSSSTKKTQLQLSQLYVLLKAILNGINNYKNPKLTRMLTFKFYMPKKATELKHLQCLEEELKPLEEVLNLAQSKNFHLRPRDLISNINVIVLELKGSETTFMCEYADETATIVEFLNRWITFCQSIISTLT

>  <obsValue>
101 fold

$$$$
>  <binder>
H55Y, SQVLKA (ligand) APTSSSTKKTQLQLSQLLVLLKAILNGINNYKNPKLTRMLTFKFYMPKKATELKYLQCLEEELKPLEEVLNLAQSKNFHLRPRDLISNINVIVLELKGSETTFMCEYADETATIVEFLNRWITFCQSIISTLT

>  <obsValue>
23.5 fold

$$$$
>  <binder>
SQVSKA (ligand) APTSSSTKKTQLQLSQLLVSLKAILNGINNYKNPKLTRMLTFKFYMPKKATELKHLQCLEEELKPLEEVLNLAQSKNFHLRPRDLISNINVIVLELKGSETTFMCEYADETATIVEFLNRWITFCQSIISTLT

>  <obsValue>
1.23 fold

$$$$
>  <binder>
Q126C, SQVLKA (ligand) APTSSSTKKTQLQLSQLLVLLKAILNGINNYKNPKLTRMLTFKFYMPKKATELKHLQCLEEELKPLEEVLNLAQSKNFHLRPRDLISNINVIVLELKGSETTFMCEYADETATIVEFLNRWITFCCSIISTLT

>  <obsValue>
0.68 fold

$$$$
